B1: EEHEE_rd4_0469 (parent)
chain: ITIHVNGVTYHFDNPEEAEKFAQKMAKTYQLKMEIHNGEFHME

variants of: B1; assay: folding stability dG (cDNA display proteolysis); higher = more stable; conditions: PBS, room temperature
Label 1.0 for high-side folding stability dG (at or above 1 kcal/mol) and 0.0 for low-side folding stability dG (below it).

Solved entries (count: 10):
[
  {
    "Mutant code": "D13Y",
    "Category label": 1.0
  },
  {
    "Mutant code": "T2P",
    "Category label": 0.0
  },
  {
    "Mutant code": "E17T",
    "Category label": 1.0
  },
  {
    "Mutant code": "T9D",
    "Category label": 0.0
  },
  {
    "Mutant code": "E17N",
    "Category label": 0.0
  },
  {
    "Mutant code": "K24E",
    "Category label": 1.0
  },
  {
    "Mutant code": "N37M",
    "Category label": 1.0
  },
  {
    "Mutant code": "H4W",
    "Category label": 1.0
  },
  {
    "Mutant code": "H41C",
    "Category label": 1.0
  },
  {
    "Mutant code": "G38D",
    "Category label": 0.0
  }
]

IN: Does the variant `E17C` have recorded folding stability dG that is 1 kcal/mol or more?
OUT: 1.0

IN: Okay, and `V5S` ?
OUT: 0.0

IN: Okay, and `K20M` ?
OUT: 1.0

IN: Okay, and `L31A` ?
OUT: 0.0

IN: Okay, and `K32P` ?
OUT: 1.0

IN: Okay, and `N6I` ?
OUT: 1.0

IN: Okay, and `Y29T` ?
OUT: 1.0

IN: Okay, and `N37Y` ?
OUT: 1.0

IN: Okay, and `E17H` ?
OUT: 0.0

IN: Okay, and `K32T` ?
OUT: 1.0

IN: Okay, and `N6M` ?
OUT: 1.0

IN: Okay, and `Y29Q` ?
OUT: 1.0

IN: Okay, and `Q30T` ?
OUT: 0.0
